Exercise: state measured pIC50 for each of the compounds provided.
Target: bovine GnRH receptor (Bos taurus)
Construct: membranes were prepared from bovine pituitary; from tissue; host or cells: bovine pituitary
Sequence (P32236 whole entry): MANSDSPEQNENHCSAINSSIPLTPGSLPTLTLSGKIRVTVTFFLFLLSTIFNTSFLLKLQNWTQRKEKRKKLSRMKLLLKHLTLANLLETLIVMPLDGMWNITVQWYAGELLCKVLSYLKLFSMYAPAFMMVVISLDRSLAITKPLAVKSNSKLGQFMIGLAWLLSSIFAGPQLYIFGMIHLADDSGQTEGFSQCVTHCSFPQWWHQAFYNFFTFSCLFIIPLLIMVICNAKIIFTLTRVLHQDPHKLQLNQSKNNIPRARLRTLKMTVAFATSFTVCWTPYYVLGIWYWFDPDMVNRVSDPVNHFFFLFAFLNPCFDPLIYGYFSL
Test: Radioligand binding, 125I-GnRH-A, bovine pituitary membranes
Conditions: read-out: bGnRH IC50
Answer as the number alone; pIC50 is minus log10 of concentration in mol/L.

## Input # returns recorded pIC50 (system: bovine GnRH receptor (Bos taurus)) for Cc1cc2c(cc1Cc1ccc(C(=O)NCc3ccccc3F)o1)C(C)(C)CCC2(C)C
## Output 5.06

## Input Item Cc1cccc(CNC(=O)c2ccc(Cc3cc4c(cc3C)C(C)(C)CCC4(C)C)o2)c1 with bovine GnRH receptor (Bos taurus) - pIC50?
## Output 5.85

## Input Find pIC50 (bovine GnRH receptor (Bos taurus)) for the entry CCOC(=O)[C@H]1CC[C@H](CNC(=O)c2ccc(Cc3cc4c(cc3C)C(C)(C)CCC4(C)C)o2)CC1
## Output 5.05

## Input So what pIC50 did COc1cccc(OC)c1NC(=O)c1ccc(Cc2cc3c(cc2C)C(C)(C)CCC3(C)C)o1 get with bovine GnRH receptor (Bos taurus)?
## Output 6.89

## Input Reported pIC50 for bovine GnRH receptor (Bos taurus), given Cc1cc2c(cc1Cc1ccc(C(=O)NCc3ccc(F)cc3F)o1)C(C)(C)CCC2(C)C ?
## Output 5.54

## Input Give recorded pIC50 with bovine GnRH receptor (Bos taurus) for the following compound: Cc1cc2c(cc1Cc1ccc(C(=O)NC[C@H]3CC[C@@H](CNC(=N)N)CC3)o1)C(C)(C)CCC2(C)C
## Output 5.55

## Input Enter reported pIC50 observed with bovine GnRH receptor (Bos taurus) for Cc1cc2c(cc1Cc1ccc(C(=O)NCc3ccc(CNC(=N)N)cc3)o1)C(C)(C)CCC2(C)C
## Output 6.03

## Input # query: pIC50 | item Cc1cc2c(cc1Cc1ccc(C(=O)NCc3cccs3)o1)C(C)(C)CCC2(C)C | system: bovine GnRH receptor (Bos taurus)
## Output 5.35

## Input Param readout= pIC50; system= bovine GnRH receptor (Bos taurus); entry= Cc1cc2c(cc1Cc1ccc(C(=O)NCc3ccccc3Cl)o1)C(C)(C)CCC2(C)C ; returns value.
## Output 5.71

## Input Provide the documented pIC50 with bovine GnRH receptor (Bos taurus) as the system for Cc1cc2c(cc1Cc1ccc(C(=O)NCc3nc4ccccc4[nH]3)o1)C(C)(C)CCC2(C)C
## Output 6.31

## Input Return pIC50 measured with bovine GnRH receptor (Bos taurus) given this compound: Cc1cc2c(cc1Cc1ccc(C(=O)NCC3CCCCC3)o1)C(C)(C)CCC2(C)C
## Output 4.90

## Input // fetch bovine GnRH receptor (Bos taurus) pIC50 for Cc1cc2c(cc1Cc1ccc(C(=O)NCc3cccc(Cl)c3)o1)C(C)(C)CCC2(C)C
## Output 5.63

## Input pIC50 of COc1ccc(CNC(=O)c2ccc(Cc3cc4c(cc3C)C(C)(C)CCC4(C)C)o2)c(OC)c1 on bovine GnRH receptor (Bos taurus)?
## Output 6.00

## Input Form: Entry = Cc1cc2c(cc1Cc1ccc(C(=O)NCC3CCCC(CNC(=N)N)C3)o1)C(C)(C)CCC2(C)C (stereo not shown) | System = bovine GnRH receptor (Bos taurus) | pIC50 = ____
## Output 5.77

## Input Quick check: pIC50 on bovine GnRH receptor (Bos taurus), item Cc1cc2c(cc1Cc1ccc(C(=O)NCc3cccc(F)c3)o1)C(C)(C)CCC2(C)C ?
## Output 5.53

## Input Observed pIC50 on bovine GnRH receptor (Bos taurus) for Cc1cc2c(cc1Cc1ccc(C(=O)NCc3cccc(CNc4nccc(NCC5CCCO5)n4)c3)o1)C(C)(C)CCC2(C)C (stereo not shown) , please.
## Output 7.37
